Tested on: RPMI-8226 leukemia
Assay: NCI-60 one-dose screen, 48 h
Conditions: 10 µM unless noted
Experimental: Growth inhibition of the RPMI-8226 human tumor cell line is measured as a screen for anti-cancer activity. Cells are grown in 96 well plates and exposed to the test compound for 48 hours. Compounds are tested at a single concentration, which is 10^-5 M for most compounds. The reported endpoint is percent growth (GI% or GIPRCNT), where numbers from 0 - 100% represent growth inhibition, and numbers from -100% - 0 represent cell death. For example, a value of 40 represents 60% growth inhibition. […]
The panel holds about 83,000 compounds, 20% with a hit somewhere; the sample as a whole holds those more often. Active and inactive are the calls of the source. The calls were made as follows: active = growth percent below 10; inactive = the rest.
Outcome codes: 1 (active), 0 (inactive)

[[record]]
compound = "COc1ccc(OC)c(NC2=C(Cl)C(=O)C(C)=C(C)C2=O)c1"
label = 0

[[record]]
compound = "CCN(CC)CCCC(C)NCC(=O)NC(c1ccc2c(c1)OCO2)c1cc(Cl)c2cccnc2c1O (centres undefined)"
label = 0

[[record]]
compound = "CC(C)Sc1nc(NC2CC2)c(C#N)c(-c2ccccc2)n1"
label = 0

[[record]]
compound = "COc1ccc(C2CC(c3ccc(Nc4nc(NCCO)nc(Nc5ccc(Cl)cc5)n4)cc3)=Nc3c(N)nc(N)nc3N2)cc1 (centres undefined)"
label = 1

[[record]]
compound = "Cc1ccccc1/C=C/c1nn2c(-c3ccoc3C)nnc2s1"
label = 0

[[record]]
compound = "O=C1/C(=C/c2ccc([N+](=O)[O-])cc2)SC(=Nc2ccccc2)N1Nc1ccccc1"
label = 0

[[record]]
compound = "O=C1[C@@H]2Cc3c([nH]c4ccccc34)[C@H](c3c(Cl)cccc3Cl)N2C(=O)CN1C1CCN(Cc2ccccc2)CC1"
label = 1

[[record]]
compound = "COc1ccc(OC)c([C@H]2c3[nH]c4ccccc4c3C[C@H]3C(=O)N(CCCCCCC(=O)NO)CC(=O)N23)c1"
label = 0

[[record]]
compound = "O=C1[C@H]2Cc3c([nH]c4ccccc34)[C@@H](c3c(Cl)cccc3Cl)N2C(=O)CN1C1CCN(Cc2ccccc2)CC1"
label = 0

[[record]]
compound = "ClC(Cl)c1nc(-c2cccs2)n2nc(-c3ccccc3)cc2n1"
label = 1

[[record]]
compound = "COc1ccc2c(c1)oc1c3[nH]c4ccccc4c3c3c(c21)C(=O)N(O)C3=O"
label = 0

[[record]]
compound = "COc1cc(NC2=C(Cl)C(=O)c3nc(C)ccc3C2=O)cc(OC)c1"
label = 1

[[record]]
compound = "C#C[C@]1(O)CC[C@H]2[C@@H]3CC=C4c5sc(Nc6cccc(C)n6)nc5CC[C@]4(C)[C@H]3CC[C@@]21C"
label = 1

[[record]]
compound = "CCCC(=O)NC(c1cccnc1)c1cc(C(C)=O)c2cccnc2c1O (centres undefined)"
label = 0

[[record]]
compound = "Nc1nc(-c2cccc([N+](=O)[O-])c2)c(N=Nc2ccccc2Cl)s1"
label = 0

[[record]]
compound = "O=C(Nc1ccc(F)cc1)c1cc(-c2ccc(F)cc2F)ccc1O"
label = 1

[[record]]
compound = "CS(=O)c1nccc(-c2c(-c3ccc(F)c(OCc4ccccc4)c3)nc3sccn23)n1 (centres undefined)"
label = 0

[[record]]
compound = "O=c1c2ccccc2nc(COc2ccccc2)n1/N=C/C=C/c1ccccc1"
label = 0

[[record]]
compound = "Brc1cccc(/C=N/Nc2nc(N/N=C/c3cccc(Br)c3)nc(N3CCOCC3)n2)c1"
label = 0

